Data provenance is PubChem BioAssay (EPA / NIEHS).

- Read-out: CFLAR gene, CFLAR (gene 8837)
- Measurement description: LTEA_HepaRG_CFLAR: Life Technologies and Expression Analysis (LTEA) Assay for CFLAR gene using HepaRG (AID 2283455)
- Assay context: mRNA level, 48 h; actives raise or lower the signal
The source made the active and inactive calls. Rule for the calls: active = hit-call score of the fitted dose curve at least 0.9, where 1 is the maximum; inactive = score below 0.9.
Possible outcomes: active, inactive

{"columns": ["Compound", "Assigned category"],
 "data": [
  ["CNC(C)=O", "inactive"],
  ["O=C(O)c1cccc(C[C@@H]2COc3ccc(OCc4nc5cc(F)ccc5s4)cc3[C@@H]2O)c1", "inactive"],
  ["CCc1cccc(CC)c1N", "inactive"],
  ["CC1(C)C(=O)N(Cl)C(=O)N1Cl", "inactive"],
  ["CCCCCCCC1CCC(=O)O1 (centres undefined)", "inactive"],
  ["O=S1(=O)CCCO1", "inactive"],
  ["CCOC(N)=O", "inactive"],
  ["CCCCCCCCCCCCCCO", "inactive"],
  ["O=C(NO)C1(NS(=O)(=O)c2ccc(Oc3ccc(F)cc3)cc2)CCOCC1", "inactive"],
  ["OCC(CO)(CO)CO", "inactive"],
  ["CCCCOC(=O)c1ccccc1", "inactive"],
  ["CC(C)c1nnc2ccc(-c3ocnc3-c3cc(F)ccc3F)cn12", "inactive"],
  ["NC(=O)N(O)[C@@H]1COc2cc(OCc3ccccc3)ccc21", "inactive"],
  ["CCn1nc(C)c2c1C(=O)NCC(c1ccc(O)cc1)=N2", "inactive"],
  ["CCCC(CCC)C(=O)O", "inactive"],
  ["CCc1ccc(O)c(C(C)(C)C)c1", "inactive"],
  ["CC(C)CC(C)O (centres undefined)", "inactive"],
  ["NC(N)=O", "inactive"],
  ["Cn1c(=O)c2[nH]cnc2n(C)c1=O", "inactive"],
  ["COc1cc2c(c(OC)c1OC)-c1ccc(OC)c(=O)cc1[C@@H](NC(C)=O)CC2", "active"],
  ["NC(=O)N1c2ccccc2C=Cc2ccccc21", "inactive"],
  ["CC(=O)c1ccccc1", "inactive"],
  ["c1ccc2ncccc2c1", "inactive"],
  ["O=C(O)[C@H](O)[C@@H](O)C(=O)O", "inactive"],
  ["CC(C)C(=O)Nc1ccc([N+](=O)[O-])c(C(F)(F)F)c1", "active"],
  ["Cc1nc(-c2ccccn2)ncc1C(=O)Nn1cc(C)c2cc(F)ccc21", "inactive"],
  ["NNC(=O)c1ccncc1", "inactive"],
  ["O=C1CN(N=Cc2ccc([N+](=O)[O-])o2)C(=O)N1", "inactive"],
  ["OC(Cn1cncn1)(Cn1cncn1)c1ccc(F)cc1F", "inactive"],
  ["CCCCN1C(=O)[C@@H]([C@H](O)C2CCCCC2)NC(=O)C12CCN(Cc1ccc(Oc3ccc(C(=O)O)cc3)cc1)CC2", "active"],
  ["NC(=O)NN=Cc1ccc([N+](=O)[O-])o1", "inactive"],
  ["C=CN1CCCC1=O", "inactive"],
  ["c1ccc2c(c1)-c1cccc3c1c-2cc1ccccc13", "active"],
  ["c1ccc2cc3ccccc3cc2c1", "inactive"]
]}
